Sourced from ChEMBL document CHEMBL4825741

# test method notes: Inhibition of p300/CBP HAT (unknown origin) by scintillation proximity assay
# Design: species or system Homo sapiens
measured endpoint: IC50 (µM)

These recorded examples may help you get a feel for the data.
{"molecule": "Cn1cc(COc2ccc(NC(=O)[C@@H](NCCc3ccc(Cl)cc3)c3ccccc3)nc2)cn1", "measured endpoint": "IC50", "reported measurement": 0.0168}
{"molecule": "CC(CN[C@H](C(=O)Nc1ccc(OC2CCN(C(=O)C3CC3)CC2)cn1)c1ccccc1)c1ccc(C#N)cc1 (stereo partly specified)", "measured endpoint": "IC50", "reported measurement": 0.0267}
{"molecule": "CC(=O)N1CC(Oc2ccc(NC(=O)[C@H](NC[C@@H](C)c3ccc(C#N)cc3)c3ccccc3)nc2)C1", "measured endpoint": "IC50", "reported measurement": 0.0212}
{"molecule": "CN1CCC(Oc2ccc(NC(=O)[C@H](NCCc3ccc(Cl)cc3)c3ccccc3)nc2)CC1", "measured endpoint": "IC50", "reported measurement": 0.0266}

(A) CC(=O)N1CC(Oc2ccc(NC(=O)[C@H](NCC(C)c3ccc(C#N)cc3)c3cccc(F)c3)nc2)C1 (stereo partly specified)
(B) CC(=O)N1CC(Oc2ccc(NC(=O)[C@@H](NC[C@@H](C)c3ccc(C#N)cc3)c3ccccc3)nc2)C1
Compare A and B by numeric IC50 and name the larger one. Your answer should be the label of the entry you select.
A
(A: 0.0233 µM, B: 0.014 µM)
